Below, each entry is listed alongside its reported pKi.
Target: recombinant human dopamine D2L receptors (Homo sapiens)
Sequence (P14416 whole entry): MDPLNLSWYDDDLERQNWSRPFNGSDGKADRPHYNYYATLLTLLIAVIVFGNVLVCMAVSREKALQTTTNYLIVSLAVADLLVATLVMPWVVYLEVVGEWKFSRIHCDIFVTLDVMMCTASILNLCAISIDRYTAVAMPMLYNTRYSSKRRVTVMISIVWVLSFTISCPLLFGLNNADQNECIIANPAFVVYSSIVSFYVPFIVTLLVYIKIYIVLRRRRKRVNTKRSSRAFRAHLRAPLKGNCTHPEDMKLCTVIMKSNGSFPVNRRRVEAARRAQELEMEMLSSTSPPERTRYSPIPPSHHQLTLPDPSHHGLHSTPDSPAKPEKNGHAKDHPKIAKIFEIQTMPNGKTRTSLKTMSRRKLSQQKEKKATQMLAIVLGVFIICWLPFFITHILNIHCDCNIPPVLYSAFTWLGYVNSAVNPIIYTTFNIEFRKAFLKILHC
Assay: Dopamine Binding Assay
Details: HEK-D2L cell membranes, 150 pM [3H]-spiperone, Cheng and Prusoff
pKi: −log10 of the molar value.

Some solved cases for reference:
{"MOLECULE": "N#Cc1ccc2[nH]cc([C@@H]3C[C@H]3CNCc3ccccc3)c2c1 (relative stereo)", "pKi": "6.00 to 7.00"}
{"MOLECULE": "Fc1ccc2[nH]cc(C3CC3CN3CCNCC3)c2c1 (stereo not shown)", "pKi": "< 6.00"}
{"MOLECULE": "CNCC1CC1c1c[nH]c2ccc(C#N)cc12 (racemic)", "pKi": "6.00 to 7.00"}
{"MOLECULE": "CCN(CCCNC(=O)OC(C)C)C[C@@H]1C[C@H]1c1c[nH]c2ccc(C#N)cc12 (relative stereo)", "pKi": "< 6.00"}
{"MOLECULE": "N#Cc1ccc2[nH]cc([C@@H]3C[C@H]3CNCCc3c[nH]c4ccccc34)c2c1 (relative stereo)", "pKi": "7.00 to 8.00"}
{"MOLECULE": "Fc1cccc(CNCC2CC2c2c[nH]c3ccc(F)cc23)c1 (stereo not shown)", "pKi": "6.00 to 7.00"}

Consider the molecule shown here: Fc1ccc2[nH]cc(C3CC3CNCC3CCCCC3)c2c1 (stereo not shown) What is its recorded pKi?
7.00 to 8.00

---

# key: entry, value: pKi
Biological target: human serotonin transporters (Homo sapiens)
Construct: expressed in transfected cells; host or cells: HEK-293 (HEK-hSERT), membrane homogenates
Sequence (P31645 whole entry): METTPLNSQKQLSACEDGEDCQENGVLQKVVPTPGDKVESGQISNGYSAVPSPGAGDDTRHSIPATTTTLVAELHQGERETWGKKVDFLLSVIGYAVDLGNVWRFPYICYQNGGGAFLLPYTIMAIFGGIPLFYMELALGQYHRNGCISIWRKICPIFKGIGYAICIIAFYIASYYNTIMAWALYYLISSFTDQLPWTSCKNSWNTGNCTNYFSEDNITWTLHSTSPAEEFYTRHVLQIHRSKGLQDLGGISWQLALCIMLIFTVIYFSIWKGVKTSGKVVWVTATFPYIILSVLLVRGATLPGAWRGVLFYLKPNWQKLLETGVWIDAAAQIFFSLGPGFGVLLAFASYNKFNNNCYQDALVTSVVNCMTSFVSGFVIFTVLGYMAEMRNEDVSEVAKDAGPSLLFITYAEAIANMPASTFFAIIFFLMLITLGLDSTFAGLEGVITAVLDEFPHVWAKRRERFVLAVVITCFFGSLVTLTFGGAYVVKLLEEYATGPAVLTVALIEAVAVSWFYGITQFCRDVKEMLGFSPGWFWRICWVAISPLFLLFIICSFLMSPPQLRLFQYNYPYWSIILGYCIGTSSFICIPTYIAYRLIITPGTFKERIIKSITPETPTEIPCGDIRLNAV
Assay: Serotonin Transporter Binding Assay
Settings: HEK-hSERT cell membranes, 1 nM [3H]-citalopram, Cheng and Prusoff; read-out: SERT Ki
pKi: −log10 of the molar value.

{"MOLECULE": "N#Cc1ccc2[nH]cc([C@@H]3C[C@H]3CNCCc3cccc(F)c3)c2c1 (relative stereo)", "SYSTEM_UNDER_TEST": "human serotonin transporters (Homo sapiens)", "VALUE_TYPE": "pKi", "RESULT": "8.00 to 9.00"}
{"MOLECULE": "CN(CCc1ccccc1)C[C@@H]1C[C@H]1c1c[nH]c2ccc(F)cc12 (relative stereo)", "SYSTEM_UNDER_TEST": "human serotonin transporters (Homo sapiens)", "VALUE_TYPE": "pKi", "RESULT": "8.00 to 9.00"}
{"MOLECULE": "N#Cc1ccc2[nH]cc([C@@H]3C[C@H]3CCCN3CCCC3)c2c1 (relative stereo)", "SYSTEM_UNDER_TEST": "human serotonin transporters (Homo sapiens)", "VALUE_TYPE": "pKi", "RESULT": "7.00 to 8.00"}

Recorded pKi of N#Cc1ccc2[nH]cc([C@@H]3C[C@H]3CNCCc3cccnc3)c2c1 (relative stereo) , please.
8.00 to 9.00

Could you share which pKi value was measured for CCOC(=O)NCCCN(C)C[C@@H]1C[C@H]1c1c[nH]c2ccc(F)cc12 (relative stereo) ?
7.00 to 8.00

Query (molecule): Fc1ccc(CNCC2CC2c2c[nH]c3ccc(F)cc23)cc1 (stereo not shown) ; field requested: pKi
7.00 to 8.00

Which pKi is reported for this molecule? Fc1ccc2[nH]cc(C3CC3CNC34C[C@H]5C[C@@H](C3)C[C@@H](C4)C5)c2c1 (stereo partly shown)
7.00 to 8.00
